System: Ambrosia artemiisifolia (AMBEL)
Assay explanation: Post-emergence herbicidal evaluation, ragweed
Format: in vivo
Condition summary: dose 0.1 kg/ha, rated 2 to 4 weeks after treatment
Observation type: AMBEL rating

Report AMBEL rating for every entry below.
1. CC(Cl)=CCOc1cc(C)cc(Oc2cc(C(F)(F)F)nn2C)n1
2. Cc1cc(OCC(F)(F)C(F)(F)F)nc(Oc2cc(C(F)(F)F)nn2C)c1
3. Cc1cc(OCC(F)(F)C(F)(F)C(F)(F)C(F)F)nc(Oc2cc(C(F)(F)F)nn2C)c1
4. Cc1cc(OC/C=C/C(F)(F)F)nc(Oc2cc(C(F)(F)F)nn2C)c1
5. Cc1cc(OCC(F)(F)C(F)F)nc(Oc2cc(C(F)(F)F)nn2C)c1
6. Cc1cc(OCC=C(Cl)Cl)nc(Oc2cc(C(F)(F)F)nn2C)c1
7. COc1cc(OCC(F)(F)C(F)F)nc(Oc2cc(C(F)(F)F)nn2C)c1

7 (7 - Good herbicidal effect)
2 (2 - Slight effect)
8 (8 - Approaching complete kill)
7 (7 - Good herbicidal effect)
4 (4 - Injury)
6 (6 - Herbicidal effect)
6 (6 - Herbicidal effect)

Reported AMBEL rating ( Cc1cc(OC=CCC(F)(F)F)nc(Oc2cc(C(F)(F)F)nn2C)c1 ) = 6 (6 - Herbicidal effect)
